Target under test: Adrenergic receptor alpha-1 (Rattus norvegicus, UniProt P15823+P23944+P43140)
Assay: Inhibition of [3H]prazosin bindign to Adrenergic alpha 1 receptor from rat brain cortex
Readout label: Ki (nM)

[A] O=C1C2C3C=CC(C3)C2C(=O)N1OCCN1CCN(c2ccccc2Cl)CC1 (stereo unspecified)
[B] O=C1C2C3C=CC(C3)C2C(=O)N1OCCCN1CCN(c2cccc(Cl)c2)CC1 (stereo unspecified)
[C] O=C1C2C3C=CC(C3)C2C(=O)N1OCCCN1CCN(c2cccc(C(F)(F)F)c2)CC1 (stereo unspecified)
Query string: Rank the listed molecules by Ki, largest first. Hello, could you send the labels back in the order asked? Thank you.
Result string: A, C, B
(A: 747 nM, C: 358 nM, B: 141 nM)

[P] O=C1C2C3C=CC(C3)C2C(=O)N1OCCCN1CCN(c2ccccc2Cl)CC1 (stereo unspecified)
[Q] COc1ccccc1N1CCN(CCCON2C(=O)C3C4C=CC(C4)C3C2=O)CC1 (stereo unspecified)
Query string: Would you let me know which has the greater Ki value, P or Q ? I would appreciate it if you answered with the label of your choice.
Result string: P
(P: 128 nM, Q: 75.3 nM)

* * *

Target under test: Adrenergic receptor alpha-2 (Rattus norvegicus, UniProt P22086+P19328+P22909)
Assay: Inhibition of [3H]yohimbine binding to Adrenergic receptor alpha 2 receptor from rat brain cortex
Readout label: Ki (µM)

[P] COc1ccccc1N1CCN(CCCON2C(=O)C3C4C=CC(C4)C3C2=O)CC1 (stereo not given)
[Q] O=C1C2C3C=CC(C3)C2C(=O)N1OCCCN1CCN(c2cccc(Cl)c2)CC1 (stereo not given)
Query string: Lowest Ki? choose P or Q Use the label to indicate which entry you chose.
Result string: Q
(Q: 1.71 µM, P: 3.65 µM)

[P] O=C1C2C3C=CC(C3)C2C(=O)N1OCCCN1CCN(c2ccccc2Cl)CC1 (stereo not given)
[Q] O=C1C2C3C=CC(C3)C2C(=O)N1OCCCN1CCN(c2cccc(C(F)(F)F)c2)CC1 (stereo not given)
Query string: Kindly identify the item with the lower Ki figure among these two: P and Q Write down the label of the entry you select.
Result string: P

* * *

Target under test: 5-hydroxytryptamine receptor 2C (Rattus norvegicus)
Sequence (P08909 whole entry): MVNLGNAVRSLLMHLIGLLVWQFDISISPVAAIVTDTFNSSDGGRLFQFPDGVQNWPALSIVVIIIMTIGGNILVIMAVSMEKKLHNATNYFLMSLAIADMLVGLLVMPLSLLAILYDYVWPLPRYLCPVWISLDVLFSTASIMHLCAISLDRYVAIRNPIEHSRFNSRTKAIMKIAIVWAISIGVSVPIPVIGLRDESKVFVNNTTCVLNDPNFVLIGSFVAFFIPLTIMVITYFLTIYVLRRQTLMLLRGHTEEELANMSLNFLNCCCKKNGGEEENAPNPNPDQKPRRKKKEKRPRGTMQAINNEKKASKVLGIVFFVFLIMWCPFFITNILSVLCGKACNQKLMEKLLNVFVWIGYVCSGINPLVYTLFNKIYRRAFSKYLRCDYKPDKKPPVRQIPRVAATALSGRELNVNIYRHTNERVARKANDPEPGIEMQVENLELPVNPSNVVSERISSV
Readings of Ki for the listed compounds

Illustrative cases are given below, each with its answer.
| Compound | Result |
| --- | --- |
| COc1ccccc1N1CCN(CCCON2C(=O)C3C4C=CC(C4)C3C2=O)CC1 (configuration not stated) | > 10 µM |
| O=C1C2C3C=CC(C3)C2C(=O)N1OCCN1CCN(c2ccccc2Cl)CC1 (configuration not stated) | > 10 µM |
| O=C1C2C3C=CC(C3)C2C(=O)N1OCCCN1CCN(c2ccccn2)CC1 (configuration not stated) | > 10 µM |
| O=C1C2C3C=CC(C3)C2C(=O)N1OCCCN1CCN(c2cccc(Cl)c2)CC1 (configuration not stated) | 0.733 µM |
| O=C1C2C3C=CC(C3)C2C(=O)N1OCCN1CCN(c2cccc(C(F)(F)F)c2)CC1 (configuration not stated) | > 10 µM |

Query string: Please give the measured Ki for this compound: COc1ccccc1N1CCN(CCON2C(=O)C3C4C=CC(C4)C3C2=O)CC1 (configuration not stated)
Result string: > 10 µM

Query string: Now give it for O=C1C2C3C=CC(C3)C2C(=O)N1OCCCN1CCN(c2ccccc2Cl)CC1 (configuration not stated) too.
Result string: 0.423 µM

From: ChEMBL document CHEMBL1141158
